test settings: in acetone, 323.15 K

{"columns": ["given smiles", "solubility (mole fraction)"],
 "data": [
  ["O=C1c2ccccc2C(=O)N1O", 0.0222]
]}

* * *

test settings: in ethanol, 313.15 K

{"columns": ["given smiles", "solubility (mole fraction)"],
 "data": [
  ["O=C1c2ccccc2C(=O)N1O", 0.01]
]}

* * *

test settings: in acetonitrile, 303.15 K

{"columns": ["given smiles", "solubility (mole fraction)"],
 "data": [
  ["O=C1c2ccccc2C(=O)N1O", 0.00476]
]}

* * *

test settings: in methyl acetate, 313.15 K

{"columns": ["given smiles", "solubility (mole fraction)"],
 "data": [
  ["O=C1c2ccccc2C(=O)N1O", 0.00794]
]}

* * *

test settings: in 2-ethoxyethanol, 323.15 K

{"columns": ["given smiles", "solubility (mole fraction)"],
 "data": [
  ["O=C1c2ccccc2C(=O)N1O", 0.0447]
]}

* * *

test settings: in 1,4-dioxane, 293.15 K
measured quantity: solubility (mole fraction)

{"columns": ["given smiles", "measured quantity", "obs value"],
 "data": [
  ["O=C1c2ccccc2C(=O)N1O", "solubility (mole fraction)", 0.0204]
]}

* * *

test settings: in ethanol, 283.15 K

{"columns": ["given smiles", "solubility (mole fraction)"],
 "data": [
  ["O=C1c2ccccc2C(=O)N1O", 0.00366]
]}

* * *

test settings: in 2-ethoxyethanol, 298.15 K

{"columns": ["given smiles", "solubility (mole fraction)"],
 "data": [
  ["O=C1c2ccccc2C(=O)N1O", 0.026]
]}

* * *

test settings: in 2-ethoxyethanol, 303.15 K
measured quantity: solubility (mole fraction)

{"columns": ["given smiles", "measured quantity", "obs value"],
 "data": [
  ["O=C1c2ccccc2C(=O)N1O", "solubility (mole fraction)", 0.0294]
]}

* * *

test settings: in n-propyl acetate, 318.15 K
measured quantity: solubility (mole fraction)

{"columns": ["given smiles", "measured quantity", "obs value"],
 "data": [
  ["O=C1c2ccccc2C(=O)N1O", "solubility (mole fraction)", 0.00594]
]}

* * *

test settings: in n-propyl acetate, 323.15 K

{"columns": ["given smiles", "solubility (mole fraction)"],
 "data": [
  ["O=C1c2ccccc2C(=O)N1O", 0.00679]
]}

* * *

test settings: in acetone, 308.15 K
measured quantity: solubility (mole fraction)

{"columns": ["given smiles", "measured quantity", "obs value"],
 "data": [
  ["O=C1c2ccccc2C(=O)N1O", "solubility (mole fraction)", 0.0161]
]}

* * *

test settings: in ethyl acetate, 318.15 K

{"columns": ["given smiles", "solubility (mole fraction)"],
 "data": [
  ["O=C1c2ccccc2C(=O)N1O", 0.00705]
]}

* * *

test settings: in n-propyl acetate, 308.15 K
measured quantity: solubility (mole fraction)

{"columns": ["given smiles", "obs value"],
 "data": [
  ["O=C1c2ccccc2C(=O)N1O", 0.00442]
]}

* * *

test settings: in methanol, 288.15 K
measured quantity: solubility (mole fraction)

{"columns": ["given smiles", "obs value"],
 "data": [
  ["O=C1c2ccccc2C(=O)N1O", 0.00484]
]}

* * *

test settings: in acetonitrile, 313.15 K
measured quantity: solubility (mole fraction)

{"columns": ["given smiles", "obs value"],
 "data": [
  ["O=C1c2ccccc2C(=O)N1O", 0.00618]
]}

* * *

test settings: in 1,4-dioxane, 298.15 K

{"columns": ["given smiles", "solubility (mole fraction)"],
 "data": [
  ["O=C1c2ccccc2C(=O)N1O", 0.0231]
]}

* * *

test settings: in acetonitrile, 323.15 K

{"columns": ["given smiles", "solubility (mole fraction)"],
 "data": [
  ["O=C1c2ccccc2C(=O)N1O", 0.0079]
]}

* * *

test settings: in methyl acetate, 308.15 K
measured quantity: solubility (mole fraction)

{"columns": ["given smiles", "obs value"],
 "data": [
  ["O=C1c2ccccc2C(=O)N1O", 0.00696]
]}

* * *

test settings: in 2-ethoxyethanol, 278.15 K
measured quantity: solubility (mole fraction)

{"columns": ["given smiles", "measured quantity", "obs value"],
 "data": [
  ["O=C1c2ccccc2C(=O)N1O", "solubility (mole fraction)", 0.016]
]}

* * *

test settings: in acetonitrile, 308.15 K

{"columns": ["given smiles", "solubility (mole fraction)"],
 "data": [
  ["O=C1c2ccccc2C(=O)N1O", 0.00543]
]}

* * *

test settings: in acetone, 293.15 K
measured quantity: solubility (mole fraction)

{"columns": ["given smiles", "measured quantity", "obs value"],
 "data": [
  ["O=C1c2ccccc2C(=O)N1O", "solubility (mole fraction)", 0.0111]
]}

* * *

test settings: in 2-ethoxyethanol, 283.15 K

{"columns": ["given smiles", "solubility (mole fraction)"],
 "data": [
  ["O=C1c2ccccc2C(=O)N1O", 0.0182]
]}

* * *

test settings: in acetonitrile, 293.15 K

{"columns": ["given smiles", "solubility (mole fraction)"],
 "data": [
  ["O=C1c2ccccc2C(=O)N1O", 0.0036]
]}

* * *

test settings: in methanol, 303.15 K
measured quantity: solubility (mole fraction)

{"columns": ["given smiles", "obs value"],
 "data": [
  ["O=C1c2ccccc2C(=O)N1O", 0.0078]
]}

* * *

test settings: in methanol, 298.15 K

{"columns": ["given smiles", "solubility (mole fraction)"],
 "data": [
  ["O=C1c2ccccc2C(=O)N1O", 0.00657]
]}

* * *

test settings: in methyl acetate, 318.15 K
measured quantity: solubility (mole fraction)

{"columns": ["given smiles", "obs value"],
 "data": [
  ["O=C1c2ccccc2C(=O)N1O", 0.00908]
]}

* * *

test settings: in 2-methoxyethanol, 303.15 K
measured quantity: solubility (mole fraction)

{"columns": ["given smiles", "measured quantity", "obs value"],
 "data": [
  ["O=C1c2ccccc2C(=O)N1O", "solubility (mole fraction)", 0.0421]
]}

* * *

test settings: in n-propyl acetate, 278.15 K
measured quantity: solubility (mole fraction)

{"columns": ["given smiles", "measured quantity", "obs value"],
 "data": [
  ["O=C1c2ccccc2C(=O)N1O", "solubility (mole fraction)", 0.0017]
]}

* * *

test settings: in n-propanol, 318.15 K
measured quantity: solubility (mole fraction)

{"columns": ["given smiles", "obs value"],
 "data": [
  ["O=C1c2ccccc2C(=O)N1O", 0.00992]
]}

* * *

test settings: in acetonitrile, 318.15 K

{"columns": ["given smiles", "solubility (mole fraction)"],
 "data": [
  ["O=C1c2ccccc2C(=O)N1O", 0.00701]
]}

* * *

test settings: in acetone, 283.15 K
measured quantity: solubility (mole fraction)

{"columns": ["given smiles", "obs value"],
 "data": [
  ["O=C1c2ccccc2C(=O)N1O", 0.00861]
]}

* * *

test settings: in methyl acetate, 293.15 K

{"columns": ["given smiles", "solubility (mole fraction)"],
 "data": [
  ["O=C1c2ccccc2C(=O)N1O", 0.00462]
]}

* * *

test settings: in 1,4-dioxane, 288.15 K
measured quantity: solubility (mole fraction)

{"columns": ["given smiles", "obs value"],
 "data": [
  ["O=C1c2ccccc2C(=O)N1O", 0.0181]
]}

* * *

test settings: in ethyl acetate, 323.15 K

{"columns": ["given smiles", "solubility (mole fraction)"],
 "data": [
  ["O=C1c2ccccc2C(=O)N1O", 0.00807]
]}

* * *

test settings: in n-propanol, 313.15 K

{"columns": ["given smiles", "solubility (mole fraction)"],
 "data": [
  ["O=C1c2ccccc2C(=O)N1O", 0.00834]
]}

* * *

test settings: in 2-methoxyethanol, 278.15 K
measured quantity: solubility (mole fraction)

{"columns": ["given smiles", "measured quantity", "obs value"],
 "data": [
  ["O=C1c2ccccc2C(=O)N1O", "solubility (mole fraction)", 0.0254]
]}

* * *

test settings: in methanol, 318.15 K

{"columns": ["given smiles", "solubility (mole fraction)"],
 "data": [
  ["O=C1c2ccccc2C(=O)N1O", 0.0123]
]}

* * *

test settings: in n-propyl acetate, 298.15 K
measured quantity: solubility (mole fraction)

{"columns": ["given smiles", "measured quantity", "obs value"],
 "data": [
  ["O=C1c2ccccc2C(=O)N1O", "solubility (mole fraction)", 0.00329]
]}

* * *

test settings: in 2-ethoxyethanol, 288.15 K

{"columns": ["given smiles", "solubility (mole fraction)"],
 "data": [
  ["O=C1c2ccccc2C(=O)N1O", 0.0207]
]}

* * *

test settings: in n-propanol, 323.15 K

{"columns": ["given smiles", "solubility (mole fraction)"],
 "data": [
  ["O=C1c2ccccc2C(=O)N1O", 0.0119]
]}

* * *

test settings: in n-propanol, 298.15 K
measured quantity: solubility (mole fraction)

{"columns": ["given smiles", "measured quantity", "obs value"],
 "data": [
  ["O=C1c2ccccc2C(=O)N1O", "solubility (mole fraction)", 0.00467]
]}
